Every entry's value here was drawn from patent US20250027068.

# target-under-test: pooled human IgG (human IgG1,2,3 and 4)
measured-property: Enzyme Activity Endpoint Assay (purified): scIgG (ng/µL)

| protein | result-units | reported-measurement |
| --- | --- | --- |
| PRT-488 (protein) MVTSVWTKGVTPPTDFRKIVDGNIAYYHAPYKAGQGWYDITKAFDGGDNLLCGAATAGNMLHWWFDQNKDQIERYLKEHPEKQKIIFNNQELFDLKAAIDTKDSQTNSELFNYFKEKAFPYLSTKHLGVFPDHVLDMFINGYRLSLTNHGPTPVKEGSKDKRGGIFDAVFTRGVQSKLLTSRHDLKNKTLKEISDLIKQELTEGKALGLSHTYANVRINHVINLWGADFDSEGNLKAIYVTDSDTNASIGMKKYFVGVNSAGKVAISAKEIKEDNIGAQVLGLFTLSTGQDIWNQTNLEHHHHHH | ng/µL | 803 |
